Notes on pIC50 obtained with UniProt P22607.
Sequence (P22607 449-759): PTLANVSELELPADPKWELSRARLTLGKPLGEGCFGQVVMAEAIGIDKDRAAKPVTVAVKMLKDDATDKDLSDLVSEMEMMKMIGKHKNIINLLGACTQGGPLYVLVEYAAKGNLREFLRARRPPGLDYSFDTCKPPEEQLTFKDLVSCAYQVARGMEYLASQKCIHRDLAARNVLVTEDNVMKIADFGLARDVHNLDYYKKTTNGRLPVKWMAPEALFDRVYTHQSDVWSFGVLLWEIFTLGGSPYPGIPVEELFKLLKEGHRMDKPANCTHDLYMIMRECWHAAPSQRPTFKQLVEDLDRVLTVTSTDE
One number for each entry, as −log10 of the molar value.

COc1cc(Nc2ccc3ncc(-c4cnn(C5CCN(C(=O)C6(F)CN(C(=O)/C=C/CN(C)C)C6)CC5)c4C)nc3c2)cc(OC)c1 [Example 17] = 8.30
C=CC(=O)N1CC(C(=O)N2CCN(c3ccc(-c4cnc5ccc(Nc6cc(OC)cc(OC)c6)cc5n4)cn3)CC2)C1 [Example 5] = 7.23
C=CC(=O)N1CC(C(=O)N2CCN(c3cccc(-c4cnc5ccc(Nc6cc(OC)cc(OC)c6)cc5n4)c3)CC2)C1 [Example 25] = 6.49
C=CC(=O)N1CC(C(=O)N2CC(n3cc(-c4cnc5ccc(Nc6cc(OC)cc(OC)c6)cc5n4)cn3)C2)C1 [Example 16] = 8.30
COc1cc(Nc2ccc3ncc(-c4c(C)nn(C5CCN(C(=O)C6(F)CN(C(=O)/C=C/CN(C)C)C6)CC5)c4C)nc3c2)cc(OC)c1 [Example 23] = 7.89

Provide pIC50 for all items below, preserving their order.
1. C=CC(=O)N1CC(F)(C(=O)N2CCC(n3cc(-c4cnc5ccc(Nc6cc(OC)cc(OC)c6)cc5n4)cn3)CC2)C1 [Example 4]
2. COc1cc(Nc2ccc3ncc(-c4cnn([C@@H]5CCN(C(=O)C6(F)CN(C(=O)/C=C/CN(C)C)C6)C5)c4)nc3c2)cc(OC)c1 [Example 19]
3. C=CC(=O)N1CC(C(=O)N2CCC(n3ncc(-c4cnc5ccc(Nc6cc(OC)cc(OC)c6)cc5n4)c3C)CC2)C1 [Example 18]

1. 8.52
2. 8.40
3. 7.74
